Form field: Kd (one value per entry).
Assayed System: T1, CD137-hisFc fusion protein (Sino Biological Cat 10041-H03H) (human, UniProt Q07011 24-186)
T1 construct: Bought; also called recombinant human CD137 (fused with human Fc and His tag); not shown: His tag and human Fc
Assay Overview: BLI Octet, Fab
Readout Name: Kd

Binder	Readout Name	Result
Fab 7128 (Fab, V domains shown, Fab from E. coli; also called VH54/VL54) VH: EVQLVESGGGLVQPGGSLRLSCAASGFSLSTGGVGVAWIRQAPGKGLEWVSYISGDGGTTYYADSVKGRFTISRDNSKNTLYLQLNSLRAEDTAVYYCAREGSDTVLGDWFAYWGQGTLVTVSS VL: DIQLTQSPSSLSASVGDRVTITCRASQGISSYLAWYQQKPGKAPKLLIYDASNLETGVPSRFSGSGSGTDFTLTISSLQPEDFATYYCQQSYSTPLTFGQGTKVEIKR	Kd	39.7 nM
Fab 3760 (Fab, V domains shown, Fab from E. coli; also called VH1/VL1) VH: EVQLVESGGGLVQPGGSLRLSCAASGFTFTSYGIHWVRQAPGKGLEWVSGISGAGDTTYYADSVKGRFTISRDNSKNTLYLQLNSLRAEDTAVYYCARERDYDFDYWGQGTLVTVSS VL: DIQLTQSPSSLSASVGDRVTITCRASQSVSSYLAWYQQKPGKAPKLLIYDASNLETGVPSRFSGSGSGTDFTLTISSLQPEDFATYYCQQSYSTSHTFGQGTKVEIKR	Kd	12.6 nM
Fab 5302 (Fab, V domains shown, Fab from E. coli; also called VH13/VL13) VH: EVQLVESGGGLVQPGGSLRLSCAASGFSLSTGGVGVAWIRQAPGKGLEWVSSISGYGSTTYYADSVKGRFTISRDNSKNTLYLQLNSLRAEDTAVYYCAREGSDAVLGDWFGYWGQGTLVTVSS VL: DIQLTQSPSSLSASVGDRVTITCQASQDITTYLAWYQQKPGKAPKLLIYDASNRATGIPSRFSGSGSGTDFTLTISSLQPEDFATYYCQQGYYLWTFGQGTKVEIKR	Kd	1.21 nM
